target: PCSK9 (Homo sapiens, UniProt Q8NBP7); experiment: PCSK9-LDLR in vitro Binding Assay (ELISA); details: Concentration 5 μM
Sequence (Q8NBP7 153-692): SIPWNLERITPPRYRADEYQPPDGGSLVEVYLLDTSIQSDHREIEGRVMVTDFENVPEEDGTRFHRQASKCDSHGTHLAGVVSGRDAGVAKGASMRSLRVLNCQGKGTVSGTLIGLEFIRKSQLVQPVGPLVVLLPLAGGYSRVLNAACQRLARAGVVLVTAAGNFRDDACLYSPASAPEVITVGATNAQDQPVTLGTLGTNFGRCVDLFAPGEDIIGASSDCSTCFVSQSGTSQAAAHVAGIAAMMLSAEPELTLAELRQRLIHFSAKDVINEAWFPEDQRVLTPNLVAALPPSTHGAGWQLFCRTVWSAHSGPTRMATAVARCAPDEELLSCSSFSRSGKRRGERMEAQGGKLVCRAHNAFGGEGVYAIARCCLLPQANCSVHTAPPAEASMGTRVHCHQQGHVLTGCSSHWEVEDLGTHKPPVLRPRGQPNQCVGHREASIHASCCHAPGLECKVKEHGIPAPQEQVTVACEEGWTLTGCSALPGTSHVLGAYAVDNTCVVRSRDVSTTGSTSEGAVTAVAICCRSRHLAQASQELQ
Sequence (Q8NBP7 31-152 partner limits assumed): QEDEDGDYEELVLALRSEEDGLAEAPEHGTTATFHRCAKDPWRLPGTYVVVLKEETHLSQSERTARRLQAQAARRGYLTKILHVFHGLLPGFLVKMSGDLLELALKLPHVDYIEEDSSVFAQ
Recorded Endpoint: inhibition at 5 µM
Don't forget the unit after the number, please.

Prompt: Param item = Cc1oc(C(C)(C)C)nc1CC1COC(C)(C(=O)NO)OC1 (stereo not shown) ; retrieve measured inhibition at 5 µM.
Response: 11%

Prompt: Suppose we examine the compound Cc1oc(-c2ccccc2)nc1CC1COC(C)(C(=O)NOCc2ccccc2)OC1 (stereo not shown) ; what inhibition at 5 µM value has been reported?
Response: 25%

Prompt: Param item = Cc1oc(-c2ccccc2)nc1CC1COC(C)(C(=O)N2CCOCC2)OC1 (stereo not shown) ; retrieve measured inhibition at 5 µM.
Response: 20%

Prompt: Record request: inhibition at 5 µM value, item Cc1ccc(-c2nc(CC3COC(C)(C(=O)NOCc4ccccc4)OC3)c(C)o2)cc1 (stereo not shown)
Response: 6%

----------
target: PCSK9 (Homo sapiens); test: PCSK9-LDLR in vitro Binding Assay (ELISA); settings: Concentration 10 μM
Kindly supply the reported inhibition at 10 µM values for the records listed here.
Write the number in % without appending the unit.

Prompt: Dear colleague, I am looking for the recorded inhibition at 10 µM of the following molecule: Cc1ccc(-c2nc(CC3COC(C)(C(=O)NO)OC3)c(C)o2)cc1 (stereo not drawn)
Response: 27

Prompt: Which inhibition at 10 µM reading was recorded for the molecule CC(=O)C(Cc1ccccc1)NC(=O)C1(C)OCC(CCc2nc(-c3ccccc3)oc2C)CO1 (stereo not drawn) ?
Response: 21

Prompt: Any idea what its inhibition at 10 µM is? The molecule is Cc1oc(-c2ccccc2)nc1CC1COC(C)(C(=O)NO)OC1 (single isomer, unassigned)
Response: 35

Prompt: Looking for the measured inhibition at 10 µM of CC(=O)C(Cc1ccccc1)NC(=O)CNC(=O)C1(C)OCC(CCc2nc(-c3ccccc3)oc2C)CO1 (stereo not drawn) , can you help?
Response: 23

Prompt: Entry Cc1ccc(-c2nc(CC3COC(C)(C(=O)NOCc4ccccc4)OC3)c(C)o2)cc1 (stereo not drawn) has what inhibition at 10 µM?
Response: 17

Prompt: Entry Cc1oc(-c2ccccc2)nc1CCC1COC(C)(C(=O)NCC2CCOCC2)OC1 (stereo not drawn) : reported inhibition at 10 µM = ?
Response: 15

Prompt: Please give the measured inhibition at 10 µM for this molecule: Cc1nc(-c2ccc(C(F)(F)F)cc2)sc1CC1COC(C)(C(=O)NO)OC1 (stereo not drawn)
Response: 12

Prompt: Can you share its inhibition at 10 µM? I mean this molecule: Cc1oc(C(C)(C)C)nc1CC1COC(C)(C(=O)N2CCOCC2)OC1 (stereo not drawn)
Response: 27

Prompt: What measured inhibition at 10 µM goes with Cc1oc(-c2ccccc2)nc1CCC1COC(C)(C(=O)NCC(=O)N2CCOCC2)OC1 (stereo not drawn) ?
Response: 38

----------
target: PCSK9 (Homo sapiens, UniProt Q8NBP7); assay: PCSK9-LDLR in vitro Binding Assay (ELISA); conditions: Concentration 100 μM
Recorded Endpoint: inhibition at 100 µM (%)
Give a bare numeral; the unit % is implied.

Prompt: Looking for the measured inhibition at 100 µM of Cc1oc(-c2ccccc2)nc1CC1COC(C)(C(=O)N2CCOCC2)OC1 (stereo not drawn) , can you help?
Response: 44

Prompt: What value of inhibition at 100 µM has been recorded for this entry: Cc1oc(C(C)(C)C)nc1CC1COC(C)(C(=O)NO)OC1 (stereo not drawn)
Response: 25

Prompt: What does the record list as inhibition at 100 µM for Cc1oc(-c2ccccc2)nc1CCC1COC(C)(C(=O)N2CCOCC2)OC1 (stereo not drawn) ?
Response: 11

Prompt: # inhibition at 100 µM lookup, item Cc1ccc(-c2nc(CC3COC(C)(C(=O)NO)OC3)c(C)o2)cc1 (stereo not drawn)
Response: 61

Prompt: Returns the measured inhibition at 100 µM for the input compound. Input: Cc1nc(-c2ccc(C(F)(F)F)cc2)sc1CC1COC(C)(C(=O)NO)OC1 (stereo not drawn)
Response: 32

Prompt: Record request: inhibition at 100 µM value, item Cc1nc(-c2ccc(C(F)(F)F)cc2)sc1CC1COC(C)(C(=O)N2CCOCC2)OC1 (stereo not drawn)
Response: 49

Prompt: Would you mind telling me what inhibition at 100 µM value was observed for Cc1oc(-c2ccccc2)nc1CCC1COC(C)(C(=O)NCC2CCOCC2)OC1 (stereo not drawn) ?
Response: 20

Prompt: Which inhibition at 100 µM value belongs to Cc1oc(-c2ccccc2)nc1CC1COC(C)(C(=O)NOCc2ccccc2)OC1 (stereo not drawn) ?
Response: 32

Prompt: Can you share its inhibition at 100 µM? I mean this compound: Cc1oc(-c2ccccc2)nc1CC1COC(C)(C(=O)NO)OC1 (single isomer, unassigned)
Response: 42

Prompt: inhibition at 100 µM lookup needed for Cc1ccc(-c2nc(CC3COC(C)(C(=O)N4CCOCC4)OC3)c(C)o2)cc1 (stereo not drawn) , thanks.
Response: 35

Prompt: Find the recorded inhibition at 100 µM belonging to CC(=O)C(Cc1ccccc1)NC(=O)C1(C)OCC(CCc2nc(-c3ccccc3)oc2C)CO1 (stereo not drawn) and report it.
Response: 29

Prompt: Could you share which inhibition at 100 µM value was measured for Cc1oc(-c2ccccc2)nc1CC1COC(C)(C(=O)NCC(=O)N2CCOCC2)OC1 (stereo not drawn) ?
Response: 39

Prompt: Which measured inhibition at 100 µM value corresponds to Cc1oc(-c2ccccc2)nc1CC1COC(C)(C(=O)NCC2CCOCC2)OC1 (stereo not drawn) ?
Response: 30

Prompt: For the compound CC(=O)C(Cc1ccccc1)NC(=O)CNC(=O)C1(C)OCC(CCc2nc(-c3ccccc3)oc2C)CO1 (stereo not drawn) , what inhibition at 100 µM is on record?
Response: 30

Prompt: Which inhibition at 100 µM is reported for this compound? Cc1ccc(-n2nc(C(C)(C)C)cc2CC2COC(C)(C(=O)N3CCN(C)CC3)OC2)cc1 (stereo not drawn)
Response: 40

Prompt: Look up inhibition at 100 µM for this compound: Cc1oc(C(C)(C)C)nc1CC1COC(C)(C(=O)N2CCOCC2)OC1 (stereo not drawn)
Response: 37

Prompt: What does the record list as inhibition at 100 µM for Cc1ccc(-c2nc(CC3COC(C)(C(=O)NCC4CCOCC4)OC3)c(C)o2)cc1 (stereo not drawn) ?
Response: 41

Prompt: Recorded inhibition at 100 µM for Cc1oc(-c2ccccc2)nc1CCC1COC(C)(C(=O)NCC(=O)N2CCOCC2)OC1 (stereo not drawn) , please?
Response: 42

----------
Would you kindly list % Inhibition PCSK9 for each of these compounds?
molecular target: PCSK9 (Homo sapiens); assay: PCSK9-LDLR in vitro Binding Assay (ELISA); conditions: Concentration 10 μM
Write the value in % as a bare number.

Prompt: Value lookup for % Inhibition PCSK9; key = CC1(C(=O)NO)OCC(CCCn2c3ccccc3c3ccccc32)CO1 (centres unmarked)
Response: 10

Prompt: Which % Inhibition PCSK9 is listed for Cc1oc(-c2ccccc2)nc1CC1COC(C)(C(=O)NCC2CCOCC2)OC1 (centres unmarked) ?
Response: 15

Prompt: Consider the compound shown here: Cc1oc(-c2ccccc2)nc1CC1COC(C)(C(=O)NO)OC1 (single isomer, unassigned) What is its recorded % Inhibition PCSK9?
Response: 12

Prompt: Find the recorded % Inhibition PCSK9 belonging to Cc1oc(-c2ccccc2)nc1CCC1COC(C)(C(=O)NCC(=O)N2CCSCC2)OC1 (centres unmarked) and report it.
Response: 20

Prompt: Request the reported % Inhibition PCSK9 associated with Cc1oc(-c2ccccc2)nc1CCC1COC(C)(C(=O)NCC2CCOCC2)OC1 (centres unmarked)
Response: 14

Prompt: If you can, please state the reported % Inhibition PCSK9 value of Cc1oc(-c2ccccc2)nc1CC1COC(C)(C(=O)N2CCN(C)CC2)OC1 (centres unmarked) .
Response: 41

Prompt: Requested read-out: % Inhibition PCSK9. Entry: Cc1ccc(-n2nc(C(C)(C)C)cc2CC2COC(C)(C(=O)NO)OC2)cc1 (centres unmarked)
Response: 5

Prompt: Consider the compound Cc1oc(-c2ccccc2)nc1CCC1COC(C)(C(=O)NO)OC1 (centres unmarked) and give its measured % Inhibition PCSK9.
Response: 19

----------
target: PCSK9 (Homo sapiens, UniProt Q8NBP7); test: PCSK9-LDLR in vitro Binding Assay (ELISA); details: Concentration 10 μM; 10 µM
// NB: equality with 20% counts as Not fulfilled; only % Inhibition PCSK9 strictly below is Fulfilled

Prompt: Consider Cc1oc(-c2ccncc2)nc1CC1COC(C)(C(=O)NCC(=O)NCC2CCOCC2)OC1 (centres unmarked) [Example 88] . Does its % Inhibition PCSK9 lie strictly below 20%?
Response: Fulfilled

Prompt: # check: % Inhibition PCSK9 < 20% for Cc1ccc(-c2nc(CC3COC(C)(C(=O)N4CCOCC4)OC3)c(C)o2)s1 (centres unmarked) [Example 76]
Response: Fulfilled

Prompt: Lab note: % Inhibition PCSK9 threshold 20%. Does this compound come in strictly under it? Cc1ccc(-c2nc(CC3COC(C)(C(=O)N4CCOCC4)OC3)c(C)o2)cc1 (centres unmarked) [Example 66]
Response: Not fulfilled

Prompt: Is % Inhibition PCSK9 strictly under 20% for the entry Cc1oc(-c2ccncc2)nc1CC1COC(C)(C(=O)NCC(=O)NCC2CCOCC2)OC1 (centres unmarked) [Example 89] ?
Response: Fulfilled

Prompt: Just wondering, is % Inhibition PCSK9 of Cc1ccc(-c2nc(CC3COC(C)(C(=O)NCC4CCOCC4)OC3)c(C)o2)s1 (centres unmarked) [Example 75] below 20%?
Response: Fulfilled

Prompt: Input Cc1oc(-c2ccncc2)nc1CC1COC(C)(C(=O)N2CCOCC2)OC1 (centres unmarked) [Example 83] ; condition: % Inhibition PCSK9 strictly below 20%. Does it hold?
Response: Not fulfilled

Prompt: Please determine if Cc1ccc(-c2nc(CC3COC(C)(C(=O)N4CCOCC4)OC3)c(C)o2)cc1 (centres unmarked) [Example 67] is below 20% in terms of % Inhibition PCSK9.
Response: Not fulfilled

Prompt: Is the reported % Inhibition PCSK9 for Cc1oc(-c2ccncc2)nc1CC1COC(C)(C(=O)NCC(=O)N2CCOCC2)OC1 (centres unmarked) [Example 86] strictly below 20%?
Response: Fulfilled

Prompt: Determine if Cc1ccc(-c2nc(CC3COC(C)(C(=O)NO)OC3)c(C)o2)cc1 (centres unmarked) [Example 61] shows % Inhibition PCSK9 strictly lower than 20%.
Response: Not fulfilled

Prompt: Please determine if Cc1ccc(-c2nc(CC3COC(C)(C(=O)NCC4CCOCC4)OC3)c(C)o2)s1 (centres unmarked) [Example 74] is below 20% in terms of % Inhibition PCSK9.
Response: Fulfilled

Prompt: Could you please tell me whether % Inhibition PCSK9 recorded for Cc1oc(-c2ccncc2)nc1CC1COC(C)(C(=O)NCC2CCOCC2)OC1 (centres unmarked) [Example 84] is less than 20%?
Response: Not fulfilled

Prompt: % Inhibition PCSK9 strictly < 20% for this compound? Cc1ccc(-c2nc(CC3COC(C)(C(=O)N4CCOCC4)OC3)c(C)o2)s1 (centres unmarked) [Example 77]
Response: Fulfilled

Prompt: Dear reviewer, please state whether Cc1oc(-c2ccncc2)nc1CC1COC(C)(C(=O)NCC(=O)N2CCOCC2)OC1 (centres unmarked) [Example 87] has % Inhibition PCSK9 strictly beneath 20%.
Response: Fulfilled

Prompt: # TODO verify % Inhibition PCSK9 < 20% strictly for this compound: Cc1oc(-c2ccncc2)nc1CC1COC(C)(C(=O)NO)OC1 (centres unmarked) [Example 81]
Response: Fulfilled

Prompt: Here's an entry: Cc1ccc(-c2nc(CC3COC(C)(C(=O)NO)OC3)c(C)o2)cc1 (centres unmarked) [Example 60] . Is its % Inhibition PCSK9 below 20%?
Response: Not fulfilled

Prompt: Is % Inhibition PCSK9 of Cc1ccc(-c2nc(CC3COC(C)(C(=O)NCC4CCOCC4)OC3)c(C)o2)cc1 (centres unmarked) [Example 63] strictly below 20%?
Response: Not fulfilled

Prompt: Lab note: confirm whether the reported % Inhibition PCSK9 for this compound is below 20%, equality not counting. compound: Cc1ccc(-c2nc(CC3COC(C)(C(=O)NCC4CCOCC4)OC3)c(C)o2)cc1 (centres unmarked) [Example 64]
Response: Not fulfilled

Prompt: Determine if Cc1oc(-c2ccncc2)nc1CC1COC(C)(C(=O)NCC2CCOCC2)OC1 (centres unmarked) [Example 85] shows % Inhibition PCSK9 strictly lower than 20%.
Response: Not fulfilled

Prompt: Strictly below 20%: is that where % Inhibition PCSK9 of Cc1oc(-c2ccncc2)nc1CC1COC(C)(C(=O)NO)OC1 (centres unmarked) [Example 80] sits?
Response: Not fulfilled
